Tested on: Mus musculus
Test protocol: Neurotoxicity in Mus musculus Kunming (mouse) at 300 mg/kg, ip measured after 30 min by rotarod test
Format: toxicity, organism-based
Design: dose 300 mg/kg, route intraperitoneal
Condition notes: in vivo, 0.5 h
Readout type: Activity

Example cases with answers are listed next.
                                   molecule  study_system     result
0  CCCCCCCCCCCCCCCCCC(=O)N(CC)CC [N,N-DIETHYLSTEARAMIDE]  Mus musculus  Non-toxic
1  CCN(CC)C(=O)/C=C/c1ccccc1 [N,N-DIETHYLCINNAMAMIDE]  Mus musculus      Toxic
2             CCCCCCCCCCCCCCCC(=O)N(CCO)CCO  Mus musculus  Non-toxic
3  CN(C)C(=O)/C=C/c1ccccc1 [N,N-DIMETHYLCINNAMAMIDE]  Mus musculus      Toxic
4  CCCCCCCCCCCCCCCCCC(=O)NCCO [N-(2-HYDROXYETHYL)STEARAMIDE]  Mus musculus  Non-toxic

# input # query: Activity | item `CCCCCCCCCCCCCCCCCC(=O)NCCCO` | system: Mus musculus
# output Non-toxic

# input Param readout = Activity; param system = Mus musculus; param query = CCCCCCCCCCCCCCCC(=O)N(CC)CC [HEXADECANOIC ACID DIETHYLAMIDE] ; response: value
# output Non-toxic

---

Tested on: Mus musculus
Test protocol: Antidepressant activity in Mus musculus Kunming (mouse) assessed as reduction in duration of immobility at 10 mg/kg, ip measured after 30 min by forced swim test
Type: functional
Condition notes: 0.5 h, route intraperitoneal
// reported inhibition in vivo at 10 mg/kg per item
The response must be a number in % with no trailing unit.

Past entries and their recorded results:
>>> df
                                   compound  study_system                    readout_type  numeric_result
0  CCN(CC)C(=O)/C=C/c1ccccc1 [N,N-DIETHYLCINNAMAMIDE]  Mus musculus  inhibition in vivo at 10 mg/kg            18.2
1  CNCCC(Oc1ccc(C(F)(F)F)cc1)c1ccccc1 (stereo not drawn)  Mus musculus  inhibition in vivo at 10 mg/kg            39.4

Now look at this one.
# input Requested read-out inhibition in vivo at 10 mg/kg, target or system Mus musculus, entry `CN(CCO)C(=O)/C=C/c1ccccc1`
# output 8.41
